Could you please report measured pKd for the items listed next?
testedSystem: T1, human IL-18BP (human, UniProt O95998 31-194)
T1 construct: UniProt printed as 095998; also called hIL-18BP
T1 sequence: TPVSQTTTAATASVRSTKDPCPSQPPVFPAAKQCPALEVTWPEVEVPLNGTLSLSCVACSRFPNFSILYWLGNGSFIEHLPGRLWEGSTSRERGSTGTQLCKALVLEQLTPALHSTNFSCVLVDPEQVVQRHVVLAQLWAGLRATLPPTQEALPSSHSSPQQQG
test: BLI, apparent KD
pKd here: minus log base 10 of the concentration, concentration in moles per litre.

(Q) What value of measured pKd is listed for SA301a HC-T57F (antibody, name in Kabat numbering, V domains shown, IgG1 kappa) VH: QVQLQESGPGLVKPSQTLSLTCTVSGYSITSDYNSHWIRQPPGKGLEWIGYIHYSGSFNYNPSLKSRVTISRDTSKNQFSLKLSSVTAADTAVYYCARNYGSIYVNYFDYWGQGTLVTVSS VL: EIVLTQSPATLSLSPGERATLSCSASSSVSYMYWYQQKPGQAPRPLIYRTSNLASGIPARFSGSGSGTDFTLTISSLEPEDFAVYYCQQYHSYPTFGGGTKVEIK ?
(A) 8.91

(Q) May I ask what pKd has been recorded for SA301a HC-G55T (antibody, name in Kabat numbering, V domains shown, IgG1 kappa) VH: QVQLQESGPGLVKPSQTLSLTCTVSGYSITSDYNSHWIRQPPGKGLEWIGYIHYSTSTNYNPSLKSRVTISRDTSKNQFSLKLSSVTAADTAVYYCARNYGSIYVNYFDYWGQGTLVTVSS VL: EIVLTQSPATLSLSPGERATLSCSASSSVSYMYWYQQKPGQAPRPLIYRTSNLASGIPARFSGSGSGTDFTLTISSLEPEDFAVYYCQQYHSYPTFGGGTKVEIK ?
(A) 9.00

(Q) Quick one: pKd of SA301a HC-G55V (antibody, name in Kabat numbering, V domains shown, IgG1 kappa) VH: QVQLQESGPGLVKPSQTLSLTCTVSGYSITSDYNSHWIRQPPGKGLEWIGYIHYSVSTNYNPSLKSRVTISRDTSKNQFSLKLSSVTAADTAVYYCARNYGSIYVNYFDYWGQGTLVTVSS VL: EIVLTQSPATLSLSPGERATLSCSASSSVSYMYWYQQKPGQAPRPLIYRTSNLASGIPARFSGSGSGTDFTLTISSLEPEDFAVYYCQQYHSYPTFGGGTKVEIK ?
(A) 9.36

(Q) pKd lookup needed for SA301a HC-Y59Q (antibody, name in Kabat numbering, V domains shown, IgG1 kappa) VH: QVQLQESGPGLVKPSQTLSLTCTVSGYSITSDYNSHWIRQPPGKGLEWIGYIHYSGSTNQNPSLKSRVTISRDTSKNQFSLKLSSVTAADTAVYYCARNYGSIYVNYFDYWGQGTLVTVSS VL: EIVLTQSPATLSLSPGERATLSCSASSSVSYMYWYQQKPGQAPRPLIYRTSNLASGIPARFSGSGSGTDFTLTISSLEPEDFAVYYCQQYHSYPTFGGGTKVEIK , thanks.
(A) 9.46

(Q) Please look up its pKd: SA301a HC-Y59N (antibody, name in Kabat numbering, V domains shown, IgG1 kappa) VH: QVQLQESGPGLVKPSQTLSLTCTVSGYSITSDYNSHWIRQPPGKGLEWIGYIHYSGSTNNNPSLKSRVTISRDTSKNQFSLKLSSVTAADTAVYYCARNYGSIYVNYFDYWGQGTLVTVSS VL: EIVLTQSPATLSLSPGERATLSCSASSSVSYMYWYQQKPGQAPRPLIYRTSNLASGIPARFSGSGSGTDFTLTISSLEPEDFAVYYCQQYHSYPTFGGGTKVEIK
(A) 9.10

(Q) Consider the binder shown here: SA301a HC-Y59R (antibody, name in Kabat numbering, V domains shown, IgG1 kappa) VH: QVQLQESGPGLVKPSQTLSLTCTVSGYSITSDYNSHWIRQPPGKGLEWIGYIHYSGSTNRNPSLKSRVTISRDTSKNQFSLKLSSVTAADTAVYYCARNYGSIYVNYFDYWGQGTLVTVSS VL: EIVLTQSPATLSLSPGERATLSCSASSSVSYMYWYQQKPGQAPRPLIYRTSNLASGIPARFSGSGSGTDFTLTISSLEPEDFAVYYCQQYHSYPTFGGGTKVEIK What is its recorded pKd?
(A) 9.38

(Q) Look up pKd for this binder: SA301a HC-T57Q (antibody, name in Kabat numbering, V domains shown, IgG1 kappa) VH: QVQLQESGPGLVKPSQTLSLTCTVSGYSITSDYNSHWIRQPPGKGLEWIGYIHYSGSQNYNPSLKSRVTISRDTSKNQFSLKLSSVTAADTAVYYCARNYGSIYVNYFDYWGQGTLVTVSS VL: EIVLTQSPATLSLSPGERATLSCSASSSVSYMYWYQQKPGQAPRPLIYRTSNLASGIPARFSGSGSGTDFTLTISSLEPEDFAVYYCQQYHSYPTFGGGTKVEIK
(A) 9.04

(Q) # input binder: SA301a HC-G55M (antibody, name in Kabat numbering, V domains shown, IgG1 kappa) VH: QVQLQESGPGLVKPSQTLSLTCTVSGYSITSDYNSHWIRQPPGKGLEWIGYIHYSMSTNYNPSLKSRVTISRDTSKNQFSLKLSSVTAADTAVYYCARNYGSIYVNYFDYWGQGTLVTVSS VL: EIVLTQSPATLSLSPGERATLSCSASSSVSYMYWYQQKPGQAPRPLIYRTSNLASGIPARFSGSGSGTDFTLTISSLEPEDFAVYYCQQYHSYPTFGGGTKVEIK ; wanted: its pKd
(A) 9.08

(Q) What value of measured pKd is listed for SA301a HC-G55E (antibody, name in Kabat numbering, V domains shown, IgG1 kappa) VH: QVQLQESGPGLVKPSQTLSLTCTVSGYSITSDYNSHWIRQPPGKGLEWIGYIHYSESTNYNPSLKSRVTISRDTSKNQFSLKLSSVTAADTAVYYCARNYGSIYVNYFDYWGQGTLVTVSS VL: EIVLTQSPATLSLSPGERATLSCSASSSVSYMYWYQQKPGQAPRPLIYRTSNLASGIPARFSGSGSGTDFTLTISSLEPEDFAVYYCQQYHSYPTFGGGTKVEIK ?
(A) 9.40

(Q) Which measured pKd value corresponds to SA301a HC-N58T (antibody, name in Kabat numbering, V domains shown, IgG1 kappa) VH: QVQLQESGPGLVKPSQTLSLTCTVSGYSITSDYNSHWIRQPPGKGLEWIGYIHYSGSTTYNPSLKSRVTISRDTSKNQFSLKLSSVTAADTAVYYCARNYGSIYVNYFDYWGQGTLVTVSS VL: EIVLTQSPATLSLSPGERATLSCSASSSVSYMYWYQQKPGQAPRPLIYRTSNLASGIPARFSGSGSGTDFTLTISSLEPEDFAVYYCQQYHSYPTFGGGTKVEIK ?
(A) 9.33
